- ASSAY NAME: PAMPA with synthetic phospholipid membrane, octyl chain (C8)
- Assay type: in vitro ADME
- ASSAY CONDITIONS: C8, donor pH 6.57, acceptor pH 7.4, 16 h
Counter-ions that a name gives are not always drawn.
Can you tell me P e for the items I'm about to list?

Req: Answer with the recorded P e for the compound listed here: CNC(=C[N+](=O)[O-])NCCSCc1ccc(CN(C)C)o1
Resp: 3.2 ×10^–7 cm/s

Req: # return recorded P e for entry CC1(C)S[C@@H]2[C@H](NC(=O)[C@H](N)c3ccc(O)cc3)C(=O)N2[C@H]1C(=O)O
Resp: 2.6 ×10^–7 cm/s

Req: Look up and report measured P e for this entry: COCCc1ccc(OCC(O)CNC(C)C)cc1 (centres unmarked) [Metoprolol Tartrate]
Resp: 5.1 ×10^–5 cm/s

Req: Determine from records and report P e for CN/C(=N/CCSCc1nc[nH]c1C)NC#N
Resp: 2.6 ×10^–6 cm/s

Req: Indicate its recorded P e; the compound in question is CN(C)C(=N)N=C(N)N [Metformin Hydrochloride]
Resp: 3.2 ×10^–7 cm/s

* * *

- ASSAY NAME: PAMPA with synthetic phospholipid membrane, decyl chain (C10)
- Assay type: in vitro ADME
- ASSAY CONDITIONS: C10, donor pH 6.57, acceptor pH 7.4, 16 h
Structures can show the parent of a compound that is named as a salt.
Please provide measured P e for the entries that follow.

Req: Supply reported P e belonging to this molecule: CC1(C)S[C@@H]2[C@H](NC(=O)[C@H](N)c3ccc(O)cc3)C(=O)N2[C@H]1C(=O)O
Resp: 2.5 ×10^–7 cm/s

Req: Read off the recorded P e for CN/C(=N/CCSCc1nc[nH]c1C)NC#N
Resp: 2.6 ×10^–6 cm/s

Req: Provide measured P e value, entry: COCCc1ccc(OCC(O)CNC(C)C)cc1 (centres unmarked) [Metoprolol Tartrate]
Resp: 5.3 ×10^–5 cm/s

Req: Name the recorded P e of the item CNC(=C[N+](=O)[O-])NCCSCc1ccc(CN(C)C)o1 in your answer.
Resp: 3.1 ×10^–7 cm/s

Req: Query P e for CN(C)C(=N)N=C(N)N [Metformin Hydrochloride]
Resp: 3.2 ×10^–7 cm/s

* * *

- ASSAY NAME: PAMPA with synthetic phospholipid membrane, lauryl chain (C12)
- Format: in vitro ADME
- ASSAY CONDITIONS: C12, donor pH 9.32, acceptor pH 7.4, 16 h
Structures can show the parent of a compound that is named as a salt.
QUANTITY NAME: P e

Req: Entry CN(C)C(=N)N=C(N)N [Metformin Hydrochloride] needs its P e filled in; supply it.
Resp: 7.3 ×10^–7 cm/s

Req: Give the measured P e for CNC(=C[N+](=O)[O-])NCCSCc1ccc(CN(C)C)o1
Resp: 5.4 ×10^–7 cm/s

Req: Please look at this compound and report its P e: CC(C)Cc1ccc(C(C)C(=O)O)cc1 (centres unmarked)
Resp: 2.6 ×10^–6 cm/s

Req: Supply reported P e belonging to this compound: CN/C(=N/CCSCc1nc[nH]c1C)NC#N
Resp: 3.4 ×10^–6 cm/s

Req: Indicate its recorded P e; the compound in question is CCn1cc(C(=O)O)c(=O)c2cc(F)c(N3CCNCC3)cc21
Resp: 2.2 ×10^–6 cm/s

Req: Indicate its recorded P e; the compound in question is COCCc1ccc(OCC(O)CNC(C)C)cc1 (centres unmarked) [Metoprolol Tartrate]
Resp: 9.1 ×10^–5 cm/s

Req: Complete the entry with P e for CC1(C)S[C@@H]2[C@H](NC(=O)[C@H](N)c3ccc(O)cc3)C(=O)N2[C@H]1C(=O)O
Resp: 2.0 ×10^–7 cm/s

Req: Please report P e for the following compound: O=C(N[C@H](CO)[C@H](O)c1ccc([N+](=O)[O-])cc1)C(Cl)Cl
Resp: 0.5 ×10^–6 cm/s

* * *

Please go through the items and note down their P e.
- ASSAY NAME: PAMPA with synthetic phospholipid membrane, lauryl chain (C12)
- Format: in vitro ADME
- ASSAY CONDITIONS: C12, donor pH 6.57, acceptor pH 7.4, 16 h
Counter-ions that a name gives are not always drawn.

Req: Look up P e of CNC(=C[N+](=O)[O-])NCCSCc1ccc(CN(C)C)o1 and report it.
Resp: 3.2 ×10^–7 cm/s

Req: Specify measured P e for CC1(C)S[C@@H]2[C@H](NC(=O)[C@H](N)c3ccc(O)cc3)C(=O)N2[C@H]1C(=O)O .
Resp: 2.6 ×10^–7 cm/s

Req: Identify P e associated with the compound CN(C)C(=N)N=C(N)N [Metformin Hydrochloride]
Resp: 3.1 ×10^–7 cm/s

Req: Please report P e for the following compound: CCn1cc(C(=O)O)c(=O)c2cc(F)c(N3CCNCC3)cc21
Resp: 2.6 ×10^–6 cm/s

Req: Let me know recorded P e for COCCc1ccc(OCC(O)CNC(C)C)cc1 (centres unmarked) [Metoprolol Tartrate] , thanks.
Resp: 5.0 ×10^–5 cm/s

* * *

Would you mind telling me the reported Papp at 16 h of each entry?
- ASSAY NAME: PAMPA with synthetic phospholipid membrane, decyl chain (C10)
- Assay type: in vitro ADME
- ASSAY CONDITIONS: PAMPA, pH 7.4, C10 membrane, incubation time 16 h, pH 7.4 donor and acceptor, 25°C; read-out: P e
Structures can show the parent of a compound that is named as a salt.
Just the number in ×10⁻⁶ cm/s, nothing appended.

Req: Please report the measured Papp at 16 h for CNC(=C[N+](=O)[O-])NCCSCc1ccc(CN(C)C)o1 [Ranitidine]
Resp: 1.4

Req: Please list Papp at 16 h recorded for the compound CC1(C)S[C@@H]2[C@H](NC(=O)[C@H](N)c3ccc(O)cc3)C(=O)N2[C@H]1C(=O)O [Amoxicillin]
Resp: 5.3

Req: Let me know recorded Papp at 16 h for CCn1cc(C(=O)O)c(=O)c2cc(F)c(N3CCNCC3)cc21 [Norfloxacin] , thanks.
Resp: 1

Req: Specify Papp at 16 h for O=C(N[C@H](CO)[C@H](O)c1ccc([N+](=O)[O-])cc1)C(Cl)Cl [Chloroamphenicol] and stop.
Resp: 9.8

Req: Indicate the recorded Papp at 16 h value for this compound: NC(N)=Nc1nc(CSCCC(N)=NS(N)(=O)=O)cs1 [Famotidine]
Resp: 2.8

Req: Given the compound CC(C)Cc1ccc(C(C)C(=O)O)cc1 (stereo not drawn) [Ibuprofen] , write its reported Papp at 16 h.
Resp: 14.5

Req: # return recorded Papp at 16 h for input CN(C)C(=N)N=C(N)N [Metformin Hydrochloride]
Resp: 2.9

Req: // fetch Papp at 16 h given entry CN/C(=N/CCSCc1nc[nH]c1C)NC#N [Cimetidine]
Resp: 2.8

Req: Return Papp at 16 h (reported value) for this compound: COCCc1ccc(OCC(O)CNC(C)C)cc1 (stereo not drawn) [Metoprolol Tartrate]
Resp: 10.3

* * *

Kindly state Papp at 16 h for each of the entries shown.
- ASSAY NAME: PAMPA with synthetic phospholipid membrane, octyl chain (C8)
- Format: in vitro ADME
- ASSAY CONDITIONS: PAMPA, C8, donor pH 9.32, acceptor pH 7.4, 16 h; read-out: P e
Write the answer as a number in ×10⁻⁶ cm/s, unit excluded.

Req: Supply recorded Papp at 16 h for CC(C)Cc1ccc(C(C)C(=O)O)cc1 (stereo not shown) here.
Resp: 2.6

Req: Indicate its recorded Papp at 16 h; the molecule in question is O=C(N[C@H](CO)[C@H](O)c1ccc([N+](=O)[O-])cc1)C(Cl)Cl
Resp: 0.5

Req: Output Papp at 16 h of NC(N)=Nc1nc(CSCCC(N)=NS(N)(=O)=O)cs1
Resp: 5.1

Req: Write down Papp at 16 h measured for item CN/C(=N/CCSCc1nc[nH]c1C)NC#N
Resp: 3.7

* * *

- ASSAY NAME: PAMPA with synthetic phospholipid membrane, decyl chain (C10)
- Format: in vitro ADME
- ASSAY CONDITIONS: PAMPA, C10, donor pH 9.32, acceptor pH 7.4, 16 h; read-out: P e
What Papp at 16 h was measured for each of the following?
Hi! Could you send only the number? It should be in ×10⁻⁶ cm/s, unit omitted.

Req: Assign Papp at 16 h to the following record: CN/C(=N/CCSCc1nc[nH]c1C)NC#N
Resp: 3.4

Req: Report Papp at 16 h, nothing else, for this molecule: NC(N)=Nc1nc(CSCCC(N)=NS(N)(=O)=O)cs1
Resp: 5.5

* * *

- ASSAY NAME: PAMPA with synthetic phospholipid membrane, decyl chain (C10)
- Type: in vitro ADME
- ASSAY CONDITIONS: PAMPA, C10, donor pH 8.2, acceptor pH 7.4, 16 h; read-out: P e
For each entry below, report its Papp at 16 h value.
Unit ×10⁻⁶ cm/s implied. Number only.

Req: Annotate the compound CC(C)Cc1ccc(C(C)C(=O)O)cc1 (stereo not drawn) with its measured Papp at 16 h.
Resp: 1.5

Req: Fill in reported Papp at 16 h for this entry: CN/C(=N/CCSCc1nc[nH]c1C)NC#N
Resp: 3.1

Req: Could you please provide reported Papp at 16 h for O=C(N[C@H](CO)[C@H](O)c1ccc([N+](=O)[O-])cc1)C(Cl)Cl ? Thanks!
Resp: 0.7
